Tested on: B16 melanocytes
Assay: Viability of the cells, test of reduction of MTT
Assay type: cell-based
Settings: 72 h; 30 μM
test.readout: Viability (MTT) % stimulated control (% stimulated control)

# compound, readout.number
rows = [
    ("O=C(NC1CCCC1NC(=O)C(F)=CCCCCCOC1CCCCO1)C(F)=CCCCCCOC1CCCCO1 (centres unmarked)", 95),
    ("O=C(/C=C/CCCCCCCCO)N[C@H]1CCC[C@H]1NC(=O)/C=C/CCCCCCCCO", 76),
    ("O=C(NC1CC1NC(=O)C(F)=CCCCCCOC1CCCCO1)C(F)=CCCCCCOC1CCCCO1 (racemic) [c110]", 83),
    ("O=C(N[C@@H]1CC[C@H](NC(=O)/C(F)=C/CCCCCCCCO)C1)/C(F)=C/CCCCCCCCO", 101),
    ("O=C(O)C(F)=CCCCCCCCCCCCCCCCO [Ref 2, reference compound]", 83),
    ("O=C(NC1CC1NC(=O)C(F)=CCCCCCOC1CCCCO1)C(F)=CCCCCCOC1CCCCO1 (centres unmarked) [c111]", 98),
    ("O=C(NC1CCC(NC(=O)C(F)=CCCCCCCCCO)C1)C(F)=CCCCCCCCCO (mixture of isomers)", 82),
    ("O=C(NC1CCCC1NC(=O)C(F)=CCCCCCCCOC1CCCCO1)C(F)=CCCCCCCCOC1CCCCO1 (mixture of isomers)", 96),
]

====

System: B16 melanocytes
Assay: Viability of the cells, test of reduction of MTT
Format: cell-based
Settings: 72 h; 100 μM

# compound, target.under.test, Viability (MTT) % stimulated control (% stimulated control)
measured = [
    ("O=C(NC1CCC(NC(=O)C(F)=CCCCCCO)C1)C(F)=CCCCCCO (stereo not drawn) [c116]", "B16 melanocytes", 91),
    ("O=C(NC1CC1NC(=O)C(F)=CCCCCCOC1CCCCO1)C(F)=CCCCCCOC1CCCCO1 (mixture of isomers) [c108]", "B16 melanocytes", 80),
    ("O=C(N[C@H]1CCC[C@H]1NC(=O)/C(F)=C\\CCCCCCCOC1CCCCO1)/C(F)=C\\CCCCCCCOC1CCCCO1 (stereo partly drawn)", "B16 melanocytes", 81),
]

====

Test system: B16 melanocytes
Test: Viability of the cells, test of reduction of MTT
Assay type: cell-based
Settings: 72 h; 100 μM
Method: Melanocytes were seeded on a 96-well plate and cultured for 24 h (37° C., 5% CO2, DMEM 1 g/L glucose without phenol red supplemented with glucose 3 g/L, L-glutamine 2 mM, penicillin 50 U/mL, streptomycin 50 μg/mL, fetal calf serum (FCS) 10%). […] Wells without cells received in parallel the same quantities of medium, supplemented or not with NDP-MSH and with or without the test compounds or the reference in order to quantify the background noise associated with the presence of the compounds. […]
test.readout: Viability (MTT) % stimulated control

# molecule, test.readout, result
records = [
    ("O=C(N[C@H]1CCC[C@H]1NC(=O)/C(F)=C\\CCCCCCCCO)/C(F)=C\\CCCCCCCCO [c49]", "Viability (MTT) % stimulated control", "0 % stimulated control"),
    ("O=C(NC1CCC(NC(=O)C(F)=CCCCCCOC2CCCCO2)C1)C(F)=CCCCCCOC1CCCCO1 (stereo not shown) [c149]", "Viability (MTT) % stimulated control", "28 % stimulated control"),
    ("O=C(N[C@@H]1CC[C@H](NC(=O)/C(F)=C\\CCCCCOC2CCCCO2)C1)/C(F)=C\\CCCCCOC1CCCCO1 (stereo partly shown) [c106]", "Viability (MTT) % stimulated control", "36 % stimulated control"),
    ("O=C(N[C@@H]1CC[C@H](NC(=O)/C(F)=C/CCCCCCCCO)C1)/C(F)=C/CCCCCCCCO [c58]", "Viability (MTT) % stimulated control", "98 % stimulated control"),
]

Just for reference, patent US20140249105A1 is where these values come from.
